System: NF-kB reporter in Jurkat cells
Assay procedure: NF-kB reporter assay in Jurkat cells stimulated with aCD3/aCD28/PMA
Assay type: cell-based
Cond: Homo sapiens; Jurkat cells, 1 hr compound pre-incubation, aCD3/aCD28/PMA stimulation 4 hr, One-Glo readout; read-out: NF-kB Reporter Assay IC50
pIC50: −log10 of the molar value.

{"Compound smiles": "C[C@H]1CN(c2ccnc(-n3cc(S(=O)(=O)Nc4cccc5cnn(C)c45)cn3)c2)C(=O)N1C", "pIC50": "> 6.40"}
{"Compound smiles": "CN1C[C@@H](n2cc(S(=O)(=O)Nc3cccc4cnn(C)c34)cn2)CCC1=O", "pIC50": "< 5.60"}
{"Compound smiles": "Cc1ccc2[nH]nc(C)c2c1NS(=O)(=O)c1cnn(-c2cc(C(F)(F)F)ccn2)c1", "pIC50": "> 6.40"}
{"Compound smiles": "Cn1ncc2cccc(NS(=O)(=O)c3cnn(-c4cc(N5CC6CC(C6)C5)ccn4)c3)c21", "pIC50": "> 6.40"}
{"Compound smiles": "Cn1ncc2cccc(NS(=O)(=O)c3cnn(-c4cnn5c4OCCC5)c3)c21", "pIC50": "5.60 to 6.00"}
{"Compound smiles": "CCC(O)(CC)c1ccnc(-n2cc(S(=O)(=O)Nc3cccc4cnn(C)c34)cn2)c1", "pIC50": "> 6.40"}
